test: chemical genetic growth profiling, strain panel (AID 1159580);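 also: tested at 20 µM; growth read once vehicle control cultures reached saturation at 30 °C; 1 = growth at the plate median or of vehicle wells; lower values mean less growth of the strain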; conditions: S. cerevisiae deletion strains, growth OD, locus YPR135W, strain CTF4
In all, about 5,500 compounds went through this assay and about 2,000 (36%) were called active. Roughly 18% stayed inconclusive and do not appear here. Rule as the data show it: active = normalized growth mostly below about 0.91 (no sharp cut-off); inconclusive = no clear call, values can overlap the other calls; inactive = mostly above about 0.92. This is one part of the list.
Respond with a class label; see 1 (active), -1 (inactive)

Some entries whose results are on file:
{"COMPOUND": "COC(=O)c1ccc(Cl)cc1NS(=O)(=O)c1ccc(OC)c(OC)c1", "CATEGORY_LABEL": -1}
{"COMPOUND": "Cc1nn(C)c(C)c1[N+](=O)[O-]", "CATEGORY_LABEL": -1}
{"COMPOUND": "N#CCCN(CC1CCCO1)C(=S)Nc1cc(C(F)(F)F)cc(C(F)(F)F)c1 (stereo not drawn)", "CATEGORY_LABEL": -1}
{"COMPOUND": "O=C(c1c(F)cccc1F)N1CCN(C(=O)c2c(F)cccc2F)CC1", "CATEGORY_LABEL": -1}
{"COMPOUND": "Cc1nc(N)ncc1Sc1ccccc1", "CATEGORY_LABEL": -1}
{"COMPOUND": "CSc1nc(N)n(-c2ccccc2)n1", "CATEGORY_LABEL": -1}

What is the recorded call for this compound in the test? "O=C1c2ccccc2C(=O)C1(c1ccccc1)[N+](=O)[O-]"
-1

What is the recorded call for this compound in the test? "COC(=O)c1ccc2c(c1)N(C)S(=O)(=O)CC2=O"
-1

What is the recorded call for this compound in the test? "CSc1nc2ccccc2[nH]1"
-1

What is the recorded call for this compound in the test? "CC(C)(C)S(=O)(=O)/C(C#N)=C/c1ccc(F)cc1F"
-1

What is the recorded call for this compound in the test? "O=C(NNC(=S)Nc1cccc(Cl)c1)C1CC1"
-1

What is the recorded call for this compound in the test? "O=[N+]([O-])c1ccc(OCCO)c([N+](=O)[O-])c1"
-1

What is the recorded call for this compound in the test? OC1(c2ccc(F)cc2)Cc2ccccc2C2=NCCN21 (stereo not drawn)
-1

What is the recorded call for this compound in the test? "S=c1nc2[nH]c3ccccc3c2n[nH]1"
-1

What is the recorded call for this compound in the test? "Cc1cc(=O)n2[nH]cnc2n1"
-1

What is the recorded call for this compound in the test? "Cc1onc(-c2c(Cl)cccc2Cl)c1-c1nc(-c2ccc3c(c2)OCCO3)cs1"
-1

What is the recorded call for this compound in the test? "CCOC(=O)CNc1ccc(F)cc1"
-1

What is the recorded call for this compound in the test? "Cc1ccc(C)n1-c1ccc(C(=O)NNC(=O)c2ccc3nccnc3c2)cc1"
-1

What is the recorded call for this compound in the test? "CCOC(=O)Cc1csc(N=CNO)n1"
-1

What is the recorded call for this compound in the test? "c1ccc(OCCOc2ccccn2)nc1"
-1

What is the recorded call for this compound in the test? "S=C1NCN(CCN2CCCC2)CN1"
-1

====

# Lookup of reported normalized growth keyed by entry
experiment: chemical genetic growth profiling, strain panel (AID 1159580);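 also: tested at 20 µM; growth read once vehicle control cultures reached saturation at 30 °C; 1 = growth at the plate median or of vehicle wells; lower values mean less growth of the strain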; settings: S. cerevisiae deletion strains, growth OD, locus YPR141C, strain kar3, active compounds read low
In all, about 5,500 compounds went through this assay and about 2,000 (36%) were called active. Roughly 18% stayed inconclusive and do not appear here. The list shows a part of the results.
Give your answer as a number; write no unit.

Study these solved cases before continuing.
{"COMPOUND": "COc1ccc(-c2coc3cc(O)ccc3c2=O)c(OC)c1", "QUANTITY_KIND": "normalized growth", "NUMERIC_READOUT": 1}
{"COMPOUND": "CCC(C)C(=O)O[C@@H]1C[C@@]2(C)[C@H](c3ccoc3)OC(=O)CC23OC2(C)OC34[C@H](OC(=O)C(C)C)[C@@]3(O)[C@@H](OC(=O)C5(C)OC5C)[C@@]5(C)C[C@]3(O)[C@@](C)([C@H]5CC(=O)OC)C14O2 (stereo partly drawn)", "QUANTITY_KIND": "normalized growth", "NUMERIC_READOUT": 1.01}
{"COMPOUND": "COC(=O)C[C@H]1C2(C)CC34OC5(C)O[C@@]6([C@H](OC(C)=O)C(OC(C)=O)[C@]7(C)C(/C(=C(/O)C(C)C)C(=O)O[C@H]7c7ccoc7)[C@@]6(O5)[C@H](OC(C)=O)[C@@]3(O)C2OC(=O)C(C)C)[C@]14C (stereo partly drawn)", "QUANTITY_KIND": "normalized growth", "NUMERIC_READOUT": 0.969}
{"COMPOUND": "C[C@]12CCC(=O)C=C1C=CC1C2CC[C@@]2(C)C1CC[C@@]2(O)CCC(=O)O (stereo partly drawn)", "QUANTITY_KIND": "normalized growth", "NUMERIC_READOUT": 0.982}
{"COMPOUND": "O=c1c(-c2ccc(O)cc2)coc2cc(O)ccc12", "QUANTITY_KIND": "normalized growth", "NUMERIC_READOUT": 0.997}
{"COMPOUND": "COc1ccc(C(=O)CC(=O)O)c2c1C=CC(C)(C)O2", "QUANTITY_KIND": "normalized growth", "NUMERIC_READOUT": 0.991}
{"COMPOUND": "C[C@]12CCC(=O)C=C1C=CC1C2CC[C@@]2(C)C1CC[C@@]21CCC(=O)O1 (stereo partly drawn)", "QUANTITY_KIND": "normalized growth", "NUMERIC_READOUT": 0.947}
{"COMPOUND": "COc1ccc(C(CN(C)C)C2(O)CCCCC2)cc1 (stereo not drawn)", "QUANTITY_KIND": "normalized growth", "NUMERIC_READOUT": 0.991}
{"COMPOUND": "CCC(C)C(=O)OC1CC2(C)C(c3ccoc3)OC(=O)CC23OC2(C)OC34C(OC(=O)C(C)C)C3(O)C(OC(=O)C5(C)OC5C)C5(C)CC3(O)C(C)(C5C(=O)OC)C14O2 (stereo not drawn)", "QUANTITY_KIND": "normalized growth", "NUMERIC_READOUT": 1.03}
{"COMPOUND": "COC(=O)C[C@H]1C2(C)CC34OC5(C)O[C@@]6([C@H](OC)C(OC(=O)C(C)C)[C@]7(C)C(/C(=C(/OC)C(C)C)C(=O)O[C@H]7c7ccoc7)[C@@]6(O5)[C@H](OC)[C@@]3(OC)C2OC(C)=O)[C@]14C (stereo partly drawn)", "QUANTITY_KIND": "normalized growth", "NUMERIC_READOUT": 1.02}

Provide one value: measured normalized growth of CCC(C)C(=O)O[C@@H]1C[C@@]2(C)[C@H](c3ccoc3)OC(=O)CC23OC2(C)O[C@]14[C@]1(C)[C@@H](CC(=O)OC)C5(C)CC1(O)[C@](O)(C5OC(=O)C1(C)OC1C)[C@@H](OC(C)=O)[C@]34O2 (stereo partly drawn)
1.03

Provide one value: measured normalized growth of C/C=C(\C)C(=O)O[C@H]1C[C@@H](OC(C)=O)[C@@]2(C(=O)OC)CO[C@@H]3C2[C@]12CO[C@](O)(C(=O)OC)[C@H]2[C@](C)(C12O[C@@]1(C)[C@H]1C[C@@H]2OC2OC=C[C@@]21O)[C@@H]3O (stereo partly drawn)
0.977

Provide one value: measured normalized growth of "COC(=O)/C=C/C(C)=C/C=C/C(C)=C/C=C/C=C(C)/C=C/C=C(C)/C=C/C(=O)O"
0.995
